Tested on: NCI-H226
Test: NCI tumour cell line growth inhibition, 48 h
Activity calls are given as the source filed them. Rule as the data show it: active = GI50 up to about 1.1 µM and inactive = higher.
Outcomes: yes for active, no for inactive

1) COc1ccc2[nH]c(C(=O)N3CC(CCl)c4ccc([N+](=O)[O-])cc43)cc2c1 (stereo not given) | no
2) C/C1=C\CC[C@@]2(C)O[C@@H]2C[C@@H]2[C@H](C/C(C)=C/CC1)OC(=O)[C@]21CO1 | no
3) C=CCC1(O)c2cccc(O)c2C(=O)c2cccc(O)c21 (stereo not given) | no
4) CC(CCC=O)CCOCc1ccccc1 (stereo not given) | no
5) CCN(CC)C(=O)c1c(N2CCOCC2)cc(N(CC)CC)oc1=O | no
6) O=c1cc(NNc2cccc(F)c2)[nH]c(=O)[nH]1 | no
7) COC(=O)c1c(C(=O)OC)c(C(c2ccccc2)c2ccccc2)n(-c2ccccc2)c1Cl | no
8) O=C1N(c2ccccc2)C2(O)C(=O)c3ccccc3C2(O)N1c1ccccc1 (stereo not given) | no
9) O=C(OCc1ccccc1)n1cccc1 | no
10) CCOc1cc(/C=C2\N=C(c3ccccc3)N(c3nc4ccccc4s3)C2=O)ccc1O | no
11) CS(=O)(=O)c1ccc(-c2cc(-c3ccc(S(C)(=O)=O)cc3)[n+](-c3cc(-c4ccc(S(C)(=O)=O)cc4)c([O-])c(-c4ccc(S(C)(=O)=O)cc4)c3)c(-c3ccc(S(C)(=O)=O)cc3)c2)cc1 | no
12) O=C1CSC(C(/N=N/c2ccc(Cl)cc2)c2nc3ccccc3[nH]2)=N1 (stereo not given) | yes
13) Cc1ccnc2c1ccc1nc3ccccc3n12 | no
14) O=c1[nH]c(=O)n(C2OC(COP(=O)(O)OP(=O)(O)OC3OC(CO)C(O)C(O)C3O)C(O)C2O)cc1F (stereo not given) | yes
15) CS(=O)(=O)Nc1ccc2c(c1)N(S(C)(=O)=O)CC2COS(C)(=O)=O (stereo not given) | no
16) CC1=NC(C)(COC(=O)C2(C)NC(C)(CO)CO2)COC1=O (stereo not given) | no
17) CC(C(O)c1ccccc1)[N+](=O)[O-] (stereo not given) | no
18) OC(CC(c1ccccc1)c1ccc(Cl)cc1)c1ccc(Cl)cc1 (stereo not given) | no
19) CCOC(=O)NN(C(=O)OCC)C(C(=O)c1ccccc1)N(NC(=O)OCC)C(=O)OCC | no
20) NC(=S)N/N=C1/CN(c2ccc(Cl)c(Cl)c2)CC(=O)C1c1nc2ccccc2s1 (stereo not given) | no
